test system: SARS-CoV-2-S PP (B.1.1.7 spike variant); assay: microbe, parasite or virus in culture; format: cell-based; details: Severe acute respiratory syndrome coronavirus 2, read-out: EC50, B.1.1.7 PP
pEC50: −log10 of the molar value.
MEASURED_PROPERTY: pEC50

> print(dat)
                    structure.smiles.string  assay.value
1  COc1cc(N2CCC(N3CCN(C)CC3)CC2)ccc1Nc1ncc(Cl)c(Nc2ccccc2P(C)(C)=O)n1         7.27
2  CCOC(=O)[C@H]1O[C@@H]1C(=O)N[C@@H](CC(C)C)C(=O)NCCC(C)C         6.34
3  CCCC[C@@H](C=O)NC(=O)[C@H](CC(C)C)NC(=O)OCc1ccccc1         6.51

====

test system: SARS-CoV-2-S PP (Wuhan-Hu-1 spike); assay: microbe, parasite or virus in culture; assay type: cell-based; conditions: Severe acute respiratory syndrome coronavirus 2, read-out: EC50, Wuhan-Hu-1 PP
In this section, each of the compounds is paired with its reported EC50.
MEASURED_PROPERTY: EC50 (nM)

> print(dat)
                    structure.smiles.string  measured.property  assay.value
1  CCCC[C@@H](C=O)NC(=O)[C@H](CC(C)C)NC(=O)OCc1ccccc1               EC50          870
2  COc1cc(N2CCC(N3CCN(C)CC3)CC2)ccc1Nc1ncc(Cl)c(Nc2ccccc2P(C)(C)=O)n1               EC50           38
3  CCOC(=O)[C@H]1O[C@@H]1C(=O)N[C@@H](CC(C)C)C(=O)NCCC(C)C               EC50          800

====

test system: SARS-CoV-2-S PP (Wuhan-Hu-1 spike); test: microbe, parasite or virus in culture; assay type: cell-based; settings: Severe acute respiratory syndrome coronavirus 2, read-out: EC50 in Wuhan-Hu-1 SARS-CoV-2-S PP entry assay
pEC50: −log10 of the molar value.
MEASURED_PROPERTY: pEC50

> print(dat)
                                   compound  assay.value
1  Cc1cccc(/C=N/Nc2cc(N3CCOCC3)nc(OCCc3ccccn3)n2)c1 [Apilimod, apilimod]         8.04
